system: LOU-NH91; experiment: relative viability (nuclei count vs DMSO), 5 days (fraction); higher = more cells survive; details: first compound 0.01 µM

molecule: CCN(CC)CCCCNc1ncc2cc(-c3cc(OC)cc(OC)c3)c(NC(=O)NC(C)(C)C)nc2n1 + Nc1ncn([C@H]2C[C@H](O)[C@@H](CO)O2)c(=O)n1 [Decitabine] (partner 2 µM)
measuredTarget: LOU-NH91
relative viability: 0.799
--
molecule: CCN(CC)CCCCNc1ncc2cc(-c3cc(OC)cc(OC)c3)c(NC(=O)NC(C)(C)C)nc2n1 + CC(=O)c1c(C)c2cnc(Nc3ccc(N4CCNCC4)cn3)nc2n(C2CCCC2)c1=O [Palbociclib] (partner 0.5 µM)
measuredTarget: LOU-NH91
relative viability: 0.572
--
molecule: CCN(CC)CCCCNc1ncc2cc(-c3cc(OC)cc(OC)c3)c(NC(=O)NC(C)(C)C)nc2n1 + Cc1nc(Nc2ncc(C(=O)Nc3c(C)cccc3Cl)s2)cc(N2CCN(CCO)CC2)n1 [Dasatinib] (partner 0.075 µM)
measuredTarget: LOU-NH91
relative viability: 0.51

====

system: NCI-H2347; experiment: relative viability (nuclei count vs DMSO), 5 days (fraction); higher = more cells survive; details: first compound 0.08 µM
Collected relative viability values appear next to each entry.
parameterMeasured: relative viability

compound: O=c1cc(-c2cccc3c2Sc2ccccc2S3)oc(N2CCOCC2)c1 + CC1(C)CCC(c2ccc(Cl)cc2)=C(CN2CCN(c3ccc(C(=O)NS(=O)(=O)c4ccc(N[C@H](CCN5CCOCC5)CSc5ccccc5)c(S(=O)(=O)C(F)(F)F)c4)cc3)CC2)C1 [Navitoclax] (partner 0.5 µM)
valueObserved: 0.855

compound: O=c1cc(-c2cccc3c2Sc2ccccc2S3)oc(N2CCOCC2)c1 + CS(=O)(=O)N1CCN(Cc2cc3nc(-c4cccc5[nH]ncc45)nc(N4CCOCC4)c3s2)CC1 [Pictilisib] (partner 1 µM)
valueObserved: 0.633

compound: O=c1cc(-c2cccc3c2Sc2ccccc2S3)oc(N2CCOCC2)c1 + CC(=O)Nc1cccc(-n2c(=O)n(C3CC3)c(=O)c3c(Nc4ccc(I)cc4F)n(C)c(=O)c(C)c32)c1 [Trametinib] (partner 0.02 µM)
valueObserved: 0.283

compound: O=c1cc(-c2cccc3c2Sc2ccccc2S3)oc(N2CCOCC2)c1 + CS(=O)(=O)CCNCc1ccc(-c2ccc3ncnc(Nc4ccc(OCc5cccc(F)c5)c(Cl)c4)c3c2)o1 [Lapatinib] (partner 2 µM)
valueObserved: 0.978

compound: O=c1cc(-c2cccc3c2Sc2ccccc2S3)oc(N2CCOCC2)c1 + N=C(N)NC(=N)NCCc1ccccc1 [Phenformin] (partner 250 µM)
valueObserved: 0.541

compound: O=c1cc(-c2cccc3c2Sc2ccccc2S3)oc(N2CCOCC2)c1 + COc1cc2c(Oc3ccc(NC(=O)C4(C(=O)Nc5ccc(F)cc5)CC4)cc3F)ccnc2cc1OCCCN1CCOCC1 [Foretinib] (partner 0.25 µM)
valueObserved: 0.903

compound: COc1nc(C)cnc1NS(=O)(=O)c1cccnc1-c1ccc(-c2nnco2)cc1 [Zibotentan] + CC1(C)CCC(c2ccc(Cl)cc2)=C(CN2CCN(c3ccc(C(=O)NS(=O)(=O)c4ccc(N[C@H](CCN5CCOCC5)CSc5ccccc5)c(S(=O)(=O)C(F)(F)F)c4)cc3)CC2)C1 [Navitoclax] (partner 0.5 µM)
valueObserved: 0.746

compound: COc1nc(C)cnc1NS(=O)(=O)c1cccnc1-c1ccc(-c2nnco2)cc1 [Zibotentan] + Nc1ncn([C@H]2C[C@H](O)[C@@H](CO)O2)c(=O)n1 [Decitabine] (partner 2 µM)
valueObserved: 0.583

compound: O=c1cc(-c2cccc3c2Sc2ccccc2S3)oc(N2CCOCC2)c1 + CC(C)C[C@H](NC(=O)[C@H](Cc1ccccc1)NC(=O)c1cnccn1)B(O)O [Bortezomib] (partner 0.002 µM)
valueObserved: 0.947

====

system: A549; test: relative viability (nuclei count vs DMSO), 5 days (fraction); higher = more cells survive; conditions: first compound 0.01 µM
parameterMeasured: relative viability

compound: O=c1cc(N2CCOCC2)oc2c(-c3cccc4c3sc3ccccc34)cccc12 + O=C(c1cc(Cc2n[nH]c(=O)c3ccccc23)ccc1F)N1CCN(C(=O)C2CC2)CC1 [Olaparib] (partner 8 µM)
valueObserved: 0.429

compound: O=c1cc(N2CCOCC2)oc2c(-c3cccc4c3sc3ccccc34)cccc12 + COc1cc2c(Oc3ccc(NC(=O)C4(C(=O)Nc5ccc(F)cc5)CC4)cc3F)ccnc2cc1OCCCN1CCOCC1 [Foretinib] (partner 0.25 µM)
valueObserved: 0.936

compound: CCN(CC)CCCCNc1ncc2cc(-c3cc(OC)cc(OC)c3)c(NC(=O)NC(C)(C)C)nc2n1 + CC1(C)CCC(c2ccc(Cl)cc2)=C(CN2CCN(c3ccc(C(=O)NS(=O)(=O)c4ccc(N[C@H](CCN5CCOCC5)CSc5ccccc5)c(S(=O)(=O)C(F)(F)F)c4)cc3)CC2)C1 [Navitoclax] (partner 0.5 µM)
valueObserved: 1.16

====

tested on: NCI-H358; experiment: relative viability (nuclei count vs DMSO), 5 days (fraction); higher = more cells survive; settings: first compound 0.1 µM
Records here are stratified by relative viability; strata: lo = under 0.2, med = from 0.2 up to 0.7, hi = 0.7 and over

compound: O=c1cc(N2CCOCC2)oc2c(-c3cccc4c3sc3ccccc34)cccc12 + O=C(CCCCCCC(=O)Nc1ccccc1)NO [Vorinostat] (partner 1 µM)
labelClass: hi
//
compound: CCN(CC)CCCCNc1ncc2cc(-c3cc(OC)cc(OC)c3)c(NC(=O)NC(C)(C)C)nc2n1 + N=C(N)NC(=N)NCCc1ccccc1 [Phenformin] (partner 250 µM)
labelClass: med
//
compound: O=c1cc(N2CCOCC2)oc2c(-c3cccc4c3sc3ccccc34)cccc12 + NC(=O)Nc1cc(-c2cccc(F)c2)sc1C(=O)N[C@H]1CCCNC1 [AZD7762] (partner 0.2 µM)
labelClass: med
//
compound: O=c1cc(N2CCOCC2)oc2c(-c3cccc4c3sc3ccccc34)cccc12 + Cc1nc(NC(=O)N2CCC[C@H]2C(N)=O)sc1-c1ccnc(C(C)(C)C(F)(F)F)c1 [Alpelisib] (partner 2 µM)
labelClass: hi
//
compound: O=c1cc(N2CCOCC2)oc2c(-c3cccc4c3sc3ccccc34)cccc12 + Nc1ncn([C@H]2C[C@H](O)[C@@H](CO)O2)c(=O)n1 [Decitabine] (partner 2 µM)
labelClass: med
//
compound: CCN(CC)CCCCNc1ncc2cc(-c3cc(OC)cc(OC)c3)c(NC(=O)NC(C)(C)C)nc2n1 + O=C(c1cc(Cc2n[nH]c(=O)c3ccccc23)ccc1F)N1CCN(C(=O)C2CC2)CC1 [Olaparib] (partner 8 µM)
labelClass: hi
//
compound: O=c1cc(N2CCOCC2)oc2c(-c3cccc4c3sc3ccccc34)cccc12 + COc1cc2c(Oc3ccc(NC(=O)C4(C(=O)Nc5ccc(F)cc5)CC4)cc3F)ccnc2cc1OCCCN1CCOCC1 [Foretinib] (partner 0.25 µM)
labelClass: med
//
compound: O=c1cc(N2CCOCC2)oc2c(-c3cccc4c3sc3ccccc34)cccc12 + CCNC(=O)c1noc(-c2cc(C(C)C)c(O)cc2O)c1-c1ccc(CN2CCOCC2)cc1 [Luminespib] (partner 0.01 µM)
labelClass: med
//
compound: CCN(CC)CCCCNc1ncc2cc(-c3cc(OC)cc(OC)c3)c(NC(=O)NC(C)(C)C)nc2n1 + C[C@@H](Oc1cc(-c2cnn(C3CCNCC3)c2)cnc1N)c1c(Cl)ccc(F)c1Cl [Crizotinib] (partner 1 µM)
labelClass: hi
//
compound: CCN(CC)CCCCNc1ncc2cc(-c3cc(OC)cc(OC)c3)c(NC(=O)NC(C)(C)C)nc2n1 + CC(=O)Nc1cccc(-n2c(=O)n(C3CC3)c(=O)c3c(Nc4ccc(I)cc4F)n(C)c(=O)c(C)c32)c1 [Trametinib] (partner 0.02 µM)
labelClass: lo
//
compound: O=c1cc(N2CCOCC2)oc2c(-c3cccc4c3sc3ccccc34)cccc12 + Nc1nc2[nH]cc(CCc3ccc(C(=O)N[C@@H](CCC(=O)O)C(=O)O)cc3)c2c(=O)[nH]1 [Pemetrexed] (partner 0.2 µM)
labelClass: lo
//
compound: O=c1cc(N2CCOCC2)oc2c(-c3cccc4c3sc3ccccc34)cccc12 + CC(=O)Nc1cccc(-n2c(=O)n(C3CC3)c(=O)c3c(Nc4ccc(I)cc4F)n(C)c(=O)c(C)c32)c1 [Trametinib] (partner 0.02 µM)
labelClass: lo
//
compound: CCN(CC)CCCCNc1ncc2cc(-c3cc(OC)cc(OC)c3)c(NC(=O)NC(C)(C)C)nc2n1 + NC(=O)Nc1cc(-c2cccc(F)c2)sc1C(=O)N[C@H]1CCCNC1 [AZD7762] (partner 0.2 µM)
labelClass: med
//
compound: O=c1cc(N2CCOCC2)oc2c(-c3cccc4c3sc3ccccc34)cccc12 + CC(=O)c1c(C)c2cnc(Nc3ccc(N4CCNCC4)cn3)nc2n(C2CCCC2)c1=O [Palbociclib] (partner 0.5 µM)
labelClass: lo
